The entries below are paired with their reported phosphorylation by PKC epsilon.
assayed target: PKC-epsilon (Homo sapiens)
Construct: purchased Calbiochem
Sequence (Q02156 1-737): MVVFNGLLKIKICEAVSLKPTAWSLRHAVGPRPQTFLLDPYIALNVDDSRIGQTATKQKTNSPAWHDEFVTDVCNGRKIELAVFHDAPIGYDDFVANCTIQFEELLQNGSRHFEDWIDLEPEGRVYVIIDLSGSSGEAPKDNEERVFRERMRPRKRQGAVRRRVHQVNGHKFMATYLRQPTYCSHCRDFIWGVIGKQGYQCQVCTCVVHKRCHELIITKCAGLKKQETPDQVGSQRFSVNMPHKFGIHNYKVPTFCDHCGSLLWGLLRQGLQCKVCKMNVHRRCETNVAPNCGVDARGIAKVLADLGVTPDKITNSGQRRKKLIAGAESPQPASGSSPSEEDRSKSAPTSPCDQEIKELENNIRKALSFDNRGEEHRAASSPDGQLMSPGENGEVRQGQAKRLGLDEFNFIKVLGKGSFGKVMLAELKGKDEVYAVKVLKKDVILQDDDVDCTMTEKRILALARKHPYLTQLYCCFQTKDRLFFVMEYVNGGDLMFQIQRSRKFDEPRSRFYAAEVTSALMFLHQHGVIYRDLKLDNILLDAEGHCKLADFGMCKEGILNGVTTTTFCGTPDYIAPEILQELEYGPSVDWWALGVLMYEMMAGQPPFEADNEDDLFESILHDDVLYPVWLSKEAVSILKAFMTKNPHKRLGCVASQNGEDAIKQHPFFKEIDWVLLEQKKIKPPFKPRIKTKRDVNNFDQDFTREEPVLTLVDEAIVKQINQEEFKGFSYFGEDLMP
assay overview: In vitro kinase assay: peptide phosphorylation by PKC-epsilon
Type: biochemical
recorded conditions: peptide concentration 1 uM
Description: Catalytically active preparations of the kinases of interest were either purchased or prepared. […] The conditions of the kinase assay and the amount of active kinase used varied with the kinase and with the accuracy needed. […] The choice of kinase buffer depended on the kinase being analyzed. […]
I'd appreciate a reply containing only the number, no unit.

[[record]]
substance = "129 (VQRHRSMRKTFARYLSFRRD) [compound 129]"
meas_value = 65

[[record]]
substance = "164 (TEGKMARVAWKGKRRSKARK) [compound 164]"
meas_value = 12

[[record]]
substance = "137 (PSKSPSKKKKKFRTPSFLKK) [compound 137]"
meas_value = 32


The reported value for 123 (KKRFSFKKSFKLSGFSFKKN) [compound 123] in terms of phosphorylation by PKC epsilon is 67

The reported value for 131 (WKGKRRSKARKKRK) [compound 131] in terms of phosphorylation by PKC epsilon is 43

The reported value for 126 (KAIKAIEGGQKFARKSTRRS) [compound 126] in terms of phosphorylation by PKC epsilon is 69

----------
assayed target: PKC-zeta (Homo sapiens)
Construct: purchased Calbiochem
Sequence (Q05513 1-592): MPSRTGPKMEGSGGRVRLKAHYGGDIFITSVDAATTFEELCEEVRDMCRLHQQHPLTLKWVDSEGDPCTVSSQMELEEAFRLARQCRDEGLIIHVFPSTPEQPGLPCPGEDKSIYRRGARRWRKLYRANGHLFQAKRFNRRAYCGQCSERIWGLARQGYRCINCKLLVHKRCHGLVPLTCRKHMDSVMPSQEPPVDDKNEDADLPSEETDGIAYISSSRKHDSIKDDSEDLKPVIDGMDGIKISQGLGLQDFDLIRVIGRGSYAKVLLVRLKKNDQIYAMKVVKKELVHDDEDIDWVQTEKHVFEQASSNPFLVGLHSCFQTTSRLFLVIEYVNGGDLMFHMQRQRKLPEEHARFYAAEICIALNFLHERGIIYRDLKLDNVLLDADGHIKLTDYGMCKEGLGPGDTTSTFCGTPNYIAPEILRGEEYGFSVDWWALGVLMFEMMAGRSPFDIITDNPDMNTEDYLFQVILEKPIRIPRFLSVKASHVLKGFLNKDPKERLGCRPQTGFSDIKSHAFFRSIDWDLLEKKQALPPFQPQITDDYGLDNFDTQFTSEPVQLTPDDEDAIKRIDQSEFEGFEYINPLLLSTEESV
assay overview: In vitro kinase assay: peptide phosphorylation by PKC-zeta
Format: biochemical
recorded conditions: normalized to best substrate
Description: Catalytically active preparations of the kinases of interest were either purchased or prepared. […] The conditions of the kinase assay and the amount of active kinase used varied with the kinase and with the accuracy needed. […] The choice of kinase buffer depended on the kinase being analyzed. […]
The entries below are paired with their reported PKC-zeta phosphorylation.
Use % as the unit, but write only the number.

[[record]]
substance = "92 (DGQKRKKSLRKKLD) [compound 92]"
assayed_target = "PKC-zeta (Homo sapiens)"
meas_value = 2

[[record]]
substance = "106 (EILSRRPSYRKILND) [compound 106]"
assayed_target = "PKC-zeta (Homo sapiens)"
meas_value = 15

[[record]]
substance = "107 (QKRHARVTVKYDRRE) [compound 107]"
assayed_target = "PKC-zeta (Homo sapiens)"
meas_value = 1

[[record]]
substance = "81 (KRERKTSSKSSVRKRR) [compound 81]"
assayed_target = "PKC-zeta (Homo sapiens)"
meas_value = 10

[[record]]
substance = "82 (PRLIRRGSKKRPAR) [compound 82]"
assayed_target = "PKC-zeta (Homo sapiens)"
meas_value = 38

[[record]]
substance = "79 (NRKKKRTSFKRKA) [compound 79]"
assayed_target = "PKC-zeta (Homo sapiens)"
meas_value = 18


The reported value for 78 (KFARKSTRRSIRLPE) [compound 78] in terms of PKC-zeta phosphorylation is 100

The reported value for 91 (VHYTSKDTLRKRHYWR) [compound 91] in terms of PKC-zeta phosphorylation is 12

The reported value for 103 (LLKKRDSFRTPRDSKLE) [compound 103] in terms of PKC-zeta phosphorylation is 8

The reported value for 93 (AARKKRISVKKKQEQ) [compound 93] in terms of PKC-zeta phosphorylation is 1

The reported value for 100 (WKGKRRSKARKKRK) [compound 100] in terms of PKC-zeta phosphorylation is 8

The reported value for 94 (KLAVGRHSFSRRSGV) [compound 94] in terms of PKC-zeta phosphorylation is 10
